The reported numbers originate from paper PMC10786919.

Please go through the items and note down their LDH: Cytotoxicity assay: % Effect.
Tested on: HCT116 cells
Assay protocol: Lactate dehydrogenase (LDH) release assay
Type: cell-based
Positions of bridges follow the written chain, without caps; N, C: chain ends. Non-standard residues stand in square brackets, D forms with d. Residues, ends and D or L forms follow the SMILES beside them. Lys(N3) = [N-]=[N+]=NCCCC[C@H](N)C(=O)O; R8 = C=CCCCCCC[C@@](C)(N)C(=O)O; Cba = N[C@@H](CC1CCC1)C(=O)O; S5 = C=CCCC[C@](C)(N)C(=O)O; βAla = NCCC(=O)O
Report as a plain number; the unit % is understood.

Looking for the measured LDH: Cytotoxicity assay: % Effect of CC(=O)N[C@@H](CC(C)C)C(=O)N[C@H](C(=O)N[C@@H](Cc1ccccc1)C(=O)N[C@]1(C)CCCCCCC=CCCC[C@@](C)(C(=O)N[C@@H](CO)C(=O)N[C@@H](C)C(=O)N[C@@H](C)C(N)=O)NC(=O)[C@H](CC(C)C)NC(=O)[C@H](CCC(N)=O)NC(=O)[C@H](C)NC(=O)[C@H](Cc2c[nH]c3ccccc23)NC(=O)[C@H](Cc2ccc(O)cc2)NC(=O)[C@H](CCC(=O)O)NC1=O)[C@@H](C)O , can you help? 34.9

Looking for the measured LDH: Cytotoxicity assay: % Effect of CC(=O)N[C@@H](CCCNC(=N)N)C(=O)NCCC(=O)N[C@@H](CCCCN=[N+]=[N-])C(=O)N[C@@H](CC(C)C)C(=O)N[C@H](C(=O)N[C@@H](Cc1ccccc1)C(=O)N[C@]1(C)CCCCCCC=CCCC[C@@](C)(C(=O)N[C@@H](CO)C(=O)N[C@@H](C)C(=O)N[C@@H](C)C(N)=O)NC(=O)[C@H](CC2CCC2)NC(=O)[C@H](CCC(N)=O)NC(=O)[C@H](C)NC(=O)[C@H](Cc2c[nH]c3ccccc23)NC(=O)[C@H](Cc2ccc(O)cc2)NC(=O)[C@H](CCC(=O)O)NC1=O)[C@@H](C)O , can you help? 7.573

Looking for the measured LDH: Cytotoxicity assay: % Effect of CC(C)C[C@@H]1NC(=O)[C@H](C)NC(=O)[C@H](Cc2c[nH]c3ccccc23)NC(=O)[C@H](Cc2ccc(O)cc2)NC(=O)[C@H](CCC(=O)O)NC(=O)[C@](C)(NC(=O)[C@H](Cc2ccccc2)NC(=O)[C@H](CO)NC(=O)[C@@H](NC(=O)CNC(=O)[C@H](CO)NC(=O)CNC(=O)[C@@H](N)CCCCN=[N+]=[N-])[C@@H](C)O)CCCCCCC=CCCC[C@@](C)(C(=O)N[C@@H](CCC(=O)O)C(N)=O)NC(=O)[C@H](CC(C)C)NC1=O , can you help? 18.05

Looking for the measured LDH: Cytotoxicity assay: % Effect of CC(=O)N[C@@H](CCCCN=[N+]=[N-])C(=O)NCCC(=O)N[C@@H](CC(C)C)C(=O)N[C@H](C)C(=O)N[C@@H](Cc1ccccc1)C(=O)N[C@]1(C)CCCCCCC=CCCC[C@@](C)(C(=O)N[C@@H](CO)C(=O)N[C@@H](C)C(=O)N[C@@H](C)C(N)=O)NC(=O)[C@H](CC2CCC2)NC(=O)[C@H](CCC(N)=O)NC(=O)[C@H](C)NC(=O)[C@H](Cc2c[nH]c3ccccc23)NC(=O)[C@H](Cc2ccc(O)cc2)NC(=O)[C@H](CCC(=O)O)NC1=O [MP-7471] (Ac-[Lys(N3)][βAla]L[dA]F[R8]EYWAQ[Cba][S5]SAA-NH2; staple 6-13) , can you help? 0.465

Looking for the measured LDH: Cytotoxicity assay: % Effect of CC(C)C[C@H](NC(=O)CCNC(=O)[C@@H](N)CCCCN=[N+]=[N-])C(=O)N[C@H](C(=O)N[C@@H](Cc1ccccc1)C(=O)N[C@]1(C)CCCCCCC=CCCC[C@@](C)(C(N)=O)NC(=O)[C@H](CC(C)C)NC(=O)[C@H](CC(C)C)NC(=O)[C@H](C)NC(=O)[C@H](Cc2c[nH]c3ccccc23)NC(=O)[C@H](Cc2ccc(O)cc2)NC(=O)[C@H](CCC(=O)O)NC1=O)[C@@H](C)O [MP-0176] (H-[Lys(N3)][βAla]LTF[R8]EYWALL[S5]-NH2; staple 6-13) , can you help? 6.97
